Assay: Volume of distribution in rat
Format: ADME, organism-based
Conditions: in vivo, read-out: Vdss
Experimental Readout: Vd (L/kg)
Number only, in L/kg; omit the unit.

**Q:** Can you share its Vd? I mean this compound: COc1cc2c(Nc3ncc(CC(=O)Nc4cccc(F)c4)s3)ncnc2cc1OCCCN1CCC(CO)CC1
**A:** 1.8

---

Experiment: Clearance in rat
Format: ADME, organism-based
Details: in vivo
Experimental Readout: clearance (mL/min/kg)
Give the value in mL/min/kg but do not write mL/min/kg after it.

**Q:** Which clearance reading was recorded for the molecule COc1cc2c(Nc3ncc(CC(=O)Nc4cccc(F)c4)s3)ncnc2cc1OCCCN1CCC(CO)CC1 ?
**A:** 16.6

---

Target: Aurora kinase A (Homo sapiens, UniProt O14965)
Sequence (O14965 whole entry): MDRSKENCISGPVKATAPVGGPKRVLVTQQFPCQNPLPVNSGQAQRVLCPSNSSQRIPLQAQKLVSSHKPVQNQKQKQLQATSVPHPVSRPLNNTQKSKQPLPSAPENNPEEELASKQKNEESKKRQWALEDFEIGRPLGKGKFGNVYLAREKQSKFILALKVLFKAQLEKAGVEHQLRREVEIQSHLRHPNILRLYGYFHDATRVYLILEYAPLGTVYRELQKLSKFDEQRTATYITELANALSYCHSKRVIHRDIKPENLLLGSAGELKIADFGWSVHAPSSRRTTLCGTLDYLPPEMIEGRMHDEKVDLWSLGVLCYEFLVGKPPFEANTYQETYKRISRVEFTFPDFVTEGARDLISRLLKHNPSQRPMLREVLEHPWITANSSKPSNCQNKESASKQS
Each entry below lists one item and its recorded pIC50 value.
Expect pIC50 as a plain number equal to -log10 of the molar concentration.

Check out these entries, answers already filled in.
[[record]]
smiles_text = "COc1cc2c(Nc3ncc(C(=O)Nc4ccc(F)cc4)s3)ncnc2cc1OCCCN1CCOCC1"
target_or_system = "Aurora kinase A (Homo sapiens, UniProt O14965)"
observed_measurement = 9.00

[[record]]
smiles_text = "COc1cc2c(Nc3ncc(CC(=O)Nc4ccccc4C(N)=O)s3)ncnc2cc1OCCCN1CCC[C@H]1CO"
target_or_system = "Aurora kinase A (Homo sapiens, UniProt O14965)"
observed_measurement = 6.34

[[record]]
smiles_text = "CCN(C(=O)Cc1cnc(Nc2ncnc3cc(OCCCN4CCOCC4)c(OC)cc23)s1)c1ccccc1"
target_or_system = "Aurora kinase A (Homo sapiens, UniProt O14965)"
observed_measurement = 7.26


Kindly review the next compound as well.
**Q:** May I ask what pIC50 has been recorded for COc1cc2c(Nc3ncc(CC(=O)Nc4cccc(F)c4F)s3)ncnc2cc1OCCCN1CCC[C@H]1CO ?
**A:** 8.70

---

Test: Distribution coefficient of the compound, log D at pH 7.4
Type: physicochemical
Details: octanol/water
Experimental Readout: logD
Output spec: single numeric token, no unit.

**Q:** Which logD value belongs to COc1cc2c(Nc3ncc(CC(=O)Nc4cccc(F)c4)s3)ncnc2cc1OCCCN1CCC(CO)CC1 ?
**A:** 3.2

---

Assay: Inhibition of Aurora B-INCENP complex activity
Experimental Readout: pIC50
In textbook form, pIC50 equals minus log to base ten of the concentration in mol/L.

Worked cases, answers included:
[[record]]
smiles_text = "COc1cc2c(Nc3ncc(CNS(=O)(=O)c4cccc(F)c4)s3)ncnc2cc1OCCCN1CCC(CO)CC1"
observed_measurement = 7.55

[[record]]
smiles_text = "COc1cc2c(Nc3nc(CC(=O)Nc4cccc(F)c4)cs3)ncnc2cc1OCCCN1CCOCC1"
observed_measurement = 7.92


**Q:** What value of pIC50 has been recorded for this entry: COc1cc2c(Nc3ncc(CC(=O)Nc4cccc(F)c4)s3)ncnc2cc1OCCCNCCO
**A:** 9.00

**Q:** If you can, please state the reported pIC50 value of COc1cc2c(Nc3ncc(CC(=O)NCCC(C)C)s3)ncnc2cc1OCCCN1CCOCC1 .
**A:** 8.30

**Q:** What measured pIC50 goes with COCCOc1cc2ncnc(Nc3ncc(CC(=O)Nc4cccc(F)c4)s3)c2cc1OC ?
**A:** 8.10

**Q:** Dear colleague, I am looking for the recorded pIC50 of the following molecule: COc1cc2c(Nc3ncc(CC(=O)Nc4ccccc4C(N)=O)s3)ncnc2cc1OCCCN1CCC[C@H]1CO
**A:** 6.55

**Q:** Look up pIC50 for this molecule: COc1cc2c(Nc3ncc(CC(=O)Nc4cccc(F)c4)s3)ncnc2cc1OCCCN1CCC(CO)CC1
**A:** 8.15

**Q:** Need pIC50, item CCCCc1cnc(Nc2ncnc3cc(OCCCN4CCOCC4)c(OC)cc23)s1
**A:** 7.20

**Q:** What value of pIC50 has been recorded for this entry: CCN(C(=O)Cc1cnc(Nc2ncnc3cc(OCCCN4CCOCC4)c(OC)cc23)s1)c1ccccc1
**A:** 6.54

**Q:** Give its pIC50 value. Item: COc1cc2c(Nc3ncc(CC(=O)Nc4cccc(N(C)C)c4)s3)ncnc2cc1OCCCN1CCC[C@H]1CO
**A:** 7.32

**Q:** Field request: pIC50 | item: COc1cccc(NC(=O)Cc2cnc(Nc3ncnc4cc(OCCCN5CCC[C@H]5CO)c(OC)cc34)s2)c1
**A:** 8.30
